# MEASUREMENT TARGET: recombinant human p38α (Homo sapiens, UniProt Q16539)
# Sequence (Q16539 whole entry): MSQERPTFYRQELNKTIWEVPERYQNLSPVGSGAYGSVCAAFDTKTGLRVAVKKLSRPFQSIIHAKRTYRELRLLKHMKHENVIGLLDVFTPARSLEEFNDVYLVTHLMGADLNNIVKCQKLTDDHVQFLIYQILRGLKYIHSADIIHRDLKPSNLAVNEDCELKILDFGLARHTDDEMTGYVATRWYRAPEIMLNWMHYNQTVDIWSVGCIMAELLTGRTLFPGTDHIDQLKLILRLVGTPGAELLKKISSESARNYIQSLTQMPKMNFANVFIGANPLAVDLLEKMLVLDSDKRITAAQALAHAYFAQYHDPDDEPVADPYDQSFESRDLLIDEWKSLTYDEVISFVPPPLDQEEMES
# METHOD DESCRIPTION: Purified and activated recombinant human p38α HTRF kinase assay
# CONDITION INFO: 1 nM p38α, 50 μM ATP, GST-ATF2 substrate, read-out: p38a IC50
REPORTED PROPERTY: pIC50
Numbers only, as −log10 of the molar value.

[[record]]
molecule = "Cc1ccc(C(=O)Nc2ccon2)cc1-c1cc2cnn(-c3c(F)cccc3F)c2n(C)c1=O"
measured_result = 8.52

[[record]]
molecule = "Cc1c(F)cc(C(=O)NC2CC2)cc1-c1cc2cnn(-c3cc(F)ccc3F)c2n(C)c1=O"
measured_result = 8.41

[[record]]
molecule = "Cc1ccc(C(=O)O)cc1-c1cc2cnn(-c3ccc(F)cc3F)c2n(C)c1=O"
measured_result = 6.00

[[record]]
molecule = "Cc1c(F)cc(C(N)=O)cc1-c1cc2cnn(-c3ccccc3Cl)c2n(C)c1=O"
measured_result = 8.64


Could you report pIC50 for every entry in the following list?
1. CCn1c(=O)c(-c2cc(C(=O)NC3CC3)ccc2C)cc2cnn(-c3ccc(F)cc3F)c21
2. Cc1c(F)cc(C(=O)NC(C)C)cc1-c1cc2cnn(-c3c(F)cccc3F)c2n(C)c1=O
3. Cc1c(F)cc(C(N)=O)cc1-c1cc2cnn(-c3c(F)cccc3F)c2n(C)c1=O
4. Cc1ccc(C(=O)O)cc1-c1cc2cnn(-c3c(F)cccc3F)c2n(C)c1=O

1: 8.31; 2: 8.15; 3: 9.00; 4: 6.15

Could you report pIC50 for every entry in the following list?
1. Cc1ccc(C(=O)NC2CC2)cc1-c1cc2cnn(-c3ccccc3C)c2n(C)c1=O
2. Cc1ccc(C(=O)NC2CC2)cc1-c1cc2cnn(-c3ccccc3Cl)c2n(C)c1=O
3. Cc1cnc(C(=O)NC2CC2)cc1-c1cc2cnn(-c3c(F)cccc3F)c2n(C)c1=O
4. Cc1c(F)cc(C(=O)NC2CC2)cc1-c1cc2cnn(-c3ccccc3Cl)c2n(C)c1=O
5. Cc1ccc(C(N)=O)cc1-c1cc2cnn(-c3c(F)cccc3F)c2n(C)c1=O
6. COc1ccc(C(F)(F)F)cc1NC(=O)c1ccc(C)c(-c2cc3cnn(-c4c(F)cccc4F)c3n(C)c2=O)c1
7. Cc1ccc(C(=O)NC2CC2)cc1-c1cc2cnn(-c3ccc(F)cc3F)c2n(CC(O)CO)c1=O (stereo not shown)

1. 8.38
2. 8.74
3. 7.74
4. 8.64
5. 8.47
6. 8.11
7. 7.47

Please supply the value of reported pIC50 for the item Cc1ccc(C(=O)Nc2ccnn2C)cc1-c1cc2cnn(-c3c(F)cccc3F)c2n(C)c1=O
8.54

---

# Tested on: secreted IL-8 by whole blood activated with TNF-α
# METHOD DESCRIPTION: Inhibition of TNF-α induced IL-8 in 50% human whole blood
# Type: cell-based
# CONDITION INFO: Homo sapiens, TNF-α (1 nM) induced IL-8, 50% human whole blood; read-out: WB TNF/IL8 IC50
pIC50: −log10 of the molar value.
For each record, write down the corresponding pIC50.

[[record]]
compound = "Cc1ccc(I)cc1-c1cc2cnn(-c3c(F)cccc3F)c2n(C)c1=O [Example 40]"
measured_result = "≤ 5.60"


Could you report pIC50 for every entry in the following list?
1. Cn1c(=O)c(-c2cc(C(=O)O)ccc2Cl)cc2cnn(-c3c(F)cccc3F)c21 [Example 42]
2. Cc1ccc(N)cc1-c1cc2cnn(-c3c(F)cccc3F)c2n(C)c1=O [Example 39]
3. Cn1c(=O)c(-c2cc(N)ccc2Cl)cc2cnn(-c3c(F)cccc3F)c21 [Example 48]
4. Cc1ccc(C(=O)O)cc1-c1cc2cnn(-c3c(F)cccc3F)c2n(C)c1=O [Example 38]
5. Cc1ccc(NC(=O)NC2CC2)cc1-c1cc2cnn(-c3c(F)cccc3F)c2n(C)c1=O [Example 36]

≤ 5.60
≥ 7.00
6.49
≤ 5.60
6.58

Could you report pIC50 for every entry in the following list?
1. Cn1c(=O)c(-c2cc(C#N)ccc2Cl)cc2cnn(-c3c(F)cccc3F)c21 [Example 33]
2. COc1ccc(C(F)(F)F)cc1NC(=O)c1ccc(C)c(-c2cc3cnn(-c4c(F)cccc4F)c3n(C)c2=O)c1 [Example 45]
3. Cc1ccc(NC(=O)C2CC2)cc1-c1cc2cnn(-c3ccc(F)cc3F)c2n(C)c1=O [Example 16]
4. Cc1ccc(N)cc1-c1cc2cnn(-c3ccc(F)cc3F)c2n(C)c1=O [Example 37]

["≤ 5.60", "≤ 5.60", "≥ 7.00", 6.49]

Could you report pIC50 for every entry in the following list?
1. Cc1ccc(C(=O)NC2CC2)cc1-c1cc2cnn(S(=O)(=O)C3CC3)c2n(C)c1=O [Example 47]
2. Cc1ccc(I)cc1-c1cc2cnn(-c3ccc(F)cc3F)c2n(C)c1=O [Example 43]
3. Cc1ccc(C(=O)O)cc1-c1cc2cnn(-c3ccc(F)cc3F)c2n(C)c1=O [Example 41]

[6.18, "≤ 5.60", "≤ 5.60"]
